Entry source: patent US8633245B2

- Target: recombinant human PAI-1 (Homo sapiens)
- Construct: purchased Molecular Innovations, Inc
- Sequence (P05121 24-402): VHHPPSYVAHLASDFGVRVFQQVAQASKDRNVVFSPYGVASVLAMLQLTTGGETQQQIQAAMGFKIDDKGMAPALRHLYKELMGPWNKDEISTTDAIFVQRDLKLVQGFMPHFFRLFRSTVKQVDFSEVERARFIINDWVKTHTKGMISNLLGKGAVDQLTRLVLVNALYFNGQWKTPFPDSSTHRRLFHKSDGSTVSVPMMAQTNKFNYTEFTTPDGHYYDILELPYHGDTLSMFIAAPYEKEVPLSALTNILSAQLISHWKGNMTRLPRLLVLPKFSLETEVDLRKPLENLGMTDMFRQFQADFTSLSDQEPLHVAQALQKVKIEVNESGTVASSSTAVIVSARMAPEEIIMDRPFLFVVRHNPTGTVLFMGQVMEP
- Assay notes: Test Example 1: human PAI-1 inhibitory activity (tPA fluorogenic substrate, pH 7.5 Tris buffer)
- Type: biochemical
- Test parameters: Compound Concentration 25 μM; Tris buffer
// reported Inhibition Rate of PAI-1 Activity (%) per item

Molecule smiles	Inhibition Rate of PAI-1 Activity (%)
CC(C)(C)c1ccc(-c2ccc(N(Cc3ccc(Cl)cc3)C(=O)C(=O)O)cc2)cc1	>99%
CC(C)(C)c1ccc(COc2ccc(-c3cccc(C(=O)O)c3)cc2CCC(=O)O)cc1	25%
CC(C)(Oc1ccc(-c2ccc(OC(F)(F)F)cc2)cc1Oc1ccc(C(C)(C)C)cc1)C(=O)O	83%
CC(C)(C)c1ccc(CN(C(=O)C(=O)O)c2ccc(-c3ccc(Cl)cc3)cc2)cc1	67%
COc1cc(-c2ccc(OC(F)(F)F)cc2)cc(/C=C/C(=O)O)c1OCc1ccc(C(C)(C)C)cc1	70%
CC(C)(C)c1ccc(COc2ccc(-c3ccc(OC(F)(F)F)cc3)cc2OCCCC(=O)O)cc1	96%

Q. Quickly give me recorded Inhibition Rate of PAI-1 Activity (%) for `CC(C)(C)c1ccc(-c2ccc(OCc3ccc(OC(F)(F)F)cc3)c(/C=C/C(=O)O)c2)cc1`
A. 94%

Q. Quickly give me recorded Inhibition Rate of PAI-1 Activity (%) for `O=C(O)CCc1cc(-c2ccc(OC(F)(F)F)cc2)ccc1OCc1ccccc1C(F)(F)F`
A. 70%

Q. Quickly give me recorded Inhibition Rate of PAI-1 Activity (%) for `Cc1cc(C)cc(COc2ccc(-c3ccc(OC(F)(F)F)cc3)cc2CCC(=O)O)c1`
A. 77%

Q. Quickly give me recorded Inhibition Rate of PAI-1 Activity (%) for `CC(C)(C)c1ccc(COc2c(Cl)cc(-c3ccc(OC(F)(F)F)cc3)cc2C=CC(=O)O)cc1`
A. 96%

Q. Quickly give me recorded Inhibition Rate of PAI-1 Activity (%) for `Cc1c(-c2ccc(OC(F)(F)F)cc2)cccc1N(Cc1ccc(C(C)(C)C)cc1)C(=O)C(=O)O`
A. 91%

Q. Quickly give me recorded Inhibition Rate of PAI-1 Activity (%) for `CC(C)(C)c1ccc(COc2ccc(-c3ccc(C(F)(F)F)cc3)cc2/C=C/C(=O)O)cc1`
A. 95%

Q. Quickly give me recorded Inhibition Rate of PAI-1 Activity (%) for `CC(C)(C)c1ccc(-c2ccc(N(Cc3ccccc3)C(=O)C(=O)O)cc2)cc1`
A. 67%

Q. Quickly give me recorded Inhibition Rate of PAI-1 Activity (%) for `O=C(O)C(=O)N(Cc1ccc(-c2ccccc2)cc1)c1ccc(-c2ccc(OC(F)(F)F)cc2)cc1`
A. >99%

Q. Quickly give me recorded Inhibition Rate of PAI-1 Activity (%) for `O=C(O)CCc1cc(-c2ccc(OC(F)(F)F)cc2)ccc1OCCCc1ccccc1`
A. >99%

Q. Quickly give me recorded Inhibition Rate of PAI-1 Activity (%) for `CN(C(=O)C(=O)O)c1cc(-c2ccc(OC(F)(F)F)cc2)ccc1OCc1ccc(C(C)(C)C)cc1`
A. 97%

Q. Quickly give me recorded Inhibition Rate of PAI-1 Activity (%) for `CC(C)(C)c1ccc(CN(C(=O)C(=O)O)c2ccc(SCc3ccc(OC(F)(F)F)cc3)cc2)cc1`
A. 88%

Q. Quickly give me recorded Inhibition Rate of PAI-1 Activity (%) for `CC(C)(C)c1ccc(CN(C(=O)C(=O)O)c2ccc(N3CCOCC3)c(-c3ccc(OC(F)(F)F)cc3)c2)cc1`
A. 84%
